Assignment: determine reported Kidney (% ID) for the given compounds.
testName: Limited organ bio-distribution in mice
Type: in vivo, Female Swiss Albino mice
conditionInfo: 60 min after injection, n=4
Give bare numbers, in % ID.

Batch of 4 compounds: report Kidney (% ID) for each.
1. Nc1ccc(C(=O)NCC(=O)O)c([18F])c1
2. Nc1cccc([18F])c1C(=O)NCC(=O)O
3. Nc1ccc(C(=O)NCC(=O)O)cc1[19F]
4. C[C@@H](NC(=O)c1ccc(N)cc1[18F])C(=O)O

Response:
1: 0.00; 2: 0.02; 3: 0.01; 4: 0.01

Batch of 2 compounds: report Kidney (% ID) for each.
1. Nc1cc(C(=O)NCC(=O)O)ccc1[18F]
2. C[C@H](NC(=O)c1ccc(N)cc1[18F])C(=O)O

Response:
0.00
0.00

Request: Can you share its Kidney (% ID)? I mean this compound: `CC(=O)Nc1ccc(C(=O)NCC(=O)O)c([18F])c1`
Response: 0.05

###

testName: Limited organ bio-distribution in mice
Assay type: in vivo, Female Swiss Albino mice
conditionInfo: 15 min after injection, 2 mg/kg tail vein, n=4
Assignment: determine reported Small Intestine (% ID) for the given compounds.
Answers are plain numbers, in % ID.

Nc1cccc([18F])c1C(=O)NCC(=O)O [Compound 8] ... 0.10
Nc1ccc(C(=O)NCC(=O)O)c([18F])c1 [Compound 1] ... 0.07
CC(=O)Nc1ccc(C(=O)NCC(=O)O)c([18F])c1 [Compound 2] ... 0.09
Nc1cc(C(=O)NCC(=O)O)ccc1[18F] [Compound 3] ... 0.04

Batch of 3 compounds: report Small Intestine (% ID) for each.
1. Nc1ccc(C(=O)NCC(=O)O)cc1[19F] [Compound 6]
2. C[C@H](NC(=O)c1ccc(N)cc1[18F])C(=O)O [Compound 10]
3. C[C@@H](NC(=O)c1ccc(N)cc1[18F])C(=O)O [Compound 11]

Response:
1. 0.11
2. 0.01
3. 0.09

###

testName: Limited organ bio-distribution in mice
Assay type: in vivo, Female Swiss Albino mice
conditionInfo: 15 min after injection, 2 mg/kg tail vein, n=4
Assignment: determine reported Urine (% ID) for the given compounds.
One number for each entry, in % ID.

CC(=O)Nc1ccc(C(=O)NCC(=O)O)c([18F])c1 ... 84.42
Nc1ccc(C(=O)NCC(=O)O)c([18F])c1 ... 87.76
C[C@H](NC(=O)c1ccc(N)cc1[18F])C(=O)O ... 83.59
Nc1cccc([18F])c1C(=O)NCC(=O)O ... 87.51

Batch of 3 compounds: report Urine (% ID) for each.
1. Nc1cc(C(=O)NCC(=O)O)ccc1[18F]
2. C[C@@H](NC(=O)c1ccc(N)cc1[18F])C(=O)O
3. Nc1ccc(C(=O)NCC(=O)O)cc1[19F]

Response:
[72.73, 82.31, 78.21]

###

testName: Plasma clearance in rats, single injection clearance method
conditionInfo: rats, 2 mg/kg i.v. bolus tail vein, n=3, LC-MS/MS, noncompartmental
endpointName: Clearance (mL/min/100 g)
Give bare numbers, in mL/min/100 g.

Nc1cccc([18F])c1C(=O)NCC(=O)O [Compound 8] ... 1.55

Batch of 4 molecules: report Clearance for each.
1. Nc1ccc(C(=O)NCC(=O)O)cc1[19F] [Compound 6]
2. C[C@@H](NC(=O)c1ccc(N)cc1[18F])C(=O)O [Compound 11]
3. Nc1cc(C(=O)NCC(=O)O)ccc1[18F] [Compound 3]
4. C[C@H](NC(=O)c1ccc(N)cc1[18F])C(=O)O [Compound 10]

Response:
[3.48, 3.36, 2.78, 3.25]

###

testName: Limited organ bio-distribution in mice
Assay type: in vivo, Female Swiss Albino mice
conditionInfo: 60 min after injection, n=4, plasma extrapolated to blood
endpointName: Blood (% ID)
One number for each entry, in % ID.

Nc1ccc(C(=O)NCC(=O)O)cc1[19F] [Compound 6] ... 0.02

Batch of 3 compounds: report Blood (% ID) for each.
1. C[C@H](NC(=O)c1ccc(N)cc1[18F])C(=O)O [Compound 10]
2. Nc1cc(C(=O)NCC(=O)O)ccc1[18F] [Compound 3]
3. C[C@@H](NC(=O)c1ccc(N)cc1[18F])C(=O)O [Compound 11]

Response:
[0.01, 0.02, 0.12]

###

testName: Limited organ bio-distribution in mice
Type: in vivo, Female Swiss Albino mice
conditionInfo: 60 min after injection, n=4
Assignment: determine reported Liver (% ID) for the given molecules.
Field note: include the unit after the figure.

Use these answered entries as a reference point.
Nc1cc(C(=O)NCC(=O)O)ccc1[18F] ... 0.00 ± 0.00 % ID
C[C@H](NC(=O)c1ccc(N)cc1[18F])C(=O)O ... 0.05 ± 0.07 % ID
Nc1ccc(C(=O)NCC(=O)O)cc1[19F] ... 0.02 ± 0.02 % ID

Request: Can you share its Liver (% ID)? I mean this molecule: `C[C@@H](NC(=O)c1ccc(N)cc1[18F])C(=O)O`
Response: 0.00 ± 0.00 % ID

###

testName: Limited organ bio-distribution in mice
Type: in vivo, Female Swiss Albino mice
conditionInfo: 15 min after injection, 2 mg/kg tail vein, n=4
endpointName: Liver (% ID)
Numbers only, in % ID.

Use these answered entries as a reference point.
Nc1cc(C(=O)NCC(=O)O)ccc1[18F] ... 0.08
Nc1ccc(C(=O)NCC(=O)O)cc1[19F] ... 0.08

Batch of 2 compounds: report Liver (% ID) for each.
1. C[C@H](NC(=O)c1ccc(N)cc1[18F])C(=O)O
2. C[C@@H](NC(=O)c1ccc(N)cc1[18F])C(=O)O

Response:
1: 0.21; 2: 0.02

###

Assignment: determine reported Small Intestine (% ID) for the given compounds.
testName: Limited organ bio-distribution in mice
Format: in vivo, Female Swiss Albino mice
conditionInfo: 60 min after injection, n=4
One number for each entry, in % ID.

Batch of 2 compounds: report Small Intestine (% ID) for each.
1. Nc1cccc([18F])c1C(=O)NCC(=O)O
2. CC(=O)Nc1ccc(C(=O)NCC(=O)O)c([18F])c1

Response:
[0.01, 0.02]

Batch of 3 compounds: report Small Intestine (% ID) for each.
1. C[C@H](NC(=O)c1ccc(N)cc1[18F])C(=O)O
2. Nc1ccc(C(=O)NCC(=O)O)cc1[19F]
3. Nc1ccc(C(=O)NCC(=O)O)c([18F])c1

Response:
0.00
0.01
0.00

Batch of 2 compounds: report Small Intestine (% ID) for each.
1. Nc1cc(C(=O)NCC(=O)O)ccc1[18F]
2. C[C@@H](NC(=O)c1ccc(N)cc1[18F])C(=O)O

Response:
1: 0.00; 2: 0.00

###

Assignment: determine reported Kidney (% ID) for the given molecules.
testName: Limited organ bio-distribution in mice
Format: in vivo, Female Swiss Albino mice
conditionInfo: 15 min after injection, 2 mg/kg tail vein, n=4
One number for each entry, in % ID.

Nc1cc(C(=O)NCC(=O)O)ccc1[18F] ... 0.13
Nc1ccc(C(=O)NCC(=O)O)c([18F])c1 ... 0.51
Nc1ccc(C(=O)NCC(=O)O)cc1[19F] ... 0.47
C[C@@H](NC(=O)c1ccc(N)cc1[18F])C(=O)O ... 0.06

Batch of 3 molecules: report Kidney (% ID) for each.
1. Nc1cccc([18F])c1C(=O)NCC(=O)O
2. C[C@H](NC(=O)c1ccc(N)cc1[18F])C(=O)O
3. CC(=O)Nc1ccc(C(=O)NCC(=O)O)c([18F])c1

Response:
[0.91, 0.09, 1.19]

###

Assignment: determine reported Plasma clearance for the given molecules.
testName: Plasma clearance in rats, single injection clearance method
conditionInfo: normal rats

Batch of 2 molecules: report Plasma clearance for each.
1. C[C@H](NC(=O)c1ccc(N)cc1[18F])C(=O)O
2. Nc1cc(C(=O)NCC(=O)O)ccc1[18F]

Response:
1: 3.25±0.13 ml/min/100 g; 2: 2.78±0.19 ml/min/100 g

Batch of 2 molecules: report Plasma clearance for each.
1. C[C@@H](NC(=O)c1ccc(N)cc1[18F])C(=O)O
2. Nc1ccc(C(=O)NCC(=O)O)cc1[19F]

Response:
3.36±0.41 ml/min/100 g
3.48±0.63 ml/min/100 g

###

Assignment: determine reported Blood (% ID) for the given compounds.
testName: Limited organ bio-distribution in mice
Type: in vivo, Female Swiss Albino mice
conditionInfo: 15 min after injection, 2 mg/kg tail vein, n=4, plasma extrapolated assuming blood volume 6% body weight, 60% yield
Answers are plain numbers, in % ID.

Use these answered entries as a reference point.
C[C@@H](NC(=O)c1ccc(N)cc1[18F])C(=O)O [Compound 11] ... 0.94
Nc1cc(C(=O)NCC(=O)O)ccc1[18F] [Compound 3] ... 0.83
Nc1ccc(C(=O)NCC(=O)O)cc1[19F] [Compound 6] ... 0.68

Field: next compound
Request: Can you share its Blood (% ID)? I mean this compound: C[C@H](NC(=O)c1ccc(N)cc1[18F])C(=O)O [Compound 10]
Response: 0.50
